Each recorded value in this set is attributed to ChEMBL document CHEMBL1131361.

test: Michaelis constant was determined.; type: ADME
MEASURED PARAMETER: Km (µM)
Answers are plain numbers, in µM.

Notebook: CN1CCN(CCC(=O)Nc2cc(Br)ccc2Sc2cccc(NC(=O)CCCCCC(=O)OCC3=C(Br)C(=O)c4ccccc4C3=O)c2)CC1 , Km read as 160

###

target: Trypanothione reductase (Trypanosoma cruzi, UniProt P28593)
Sequence (P28593 whole entry): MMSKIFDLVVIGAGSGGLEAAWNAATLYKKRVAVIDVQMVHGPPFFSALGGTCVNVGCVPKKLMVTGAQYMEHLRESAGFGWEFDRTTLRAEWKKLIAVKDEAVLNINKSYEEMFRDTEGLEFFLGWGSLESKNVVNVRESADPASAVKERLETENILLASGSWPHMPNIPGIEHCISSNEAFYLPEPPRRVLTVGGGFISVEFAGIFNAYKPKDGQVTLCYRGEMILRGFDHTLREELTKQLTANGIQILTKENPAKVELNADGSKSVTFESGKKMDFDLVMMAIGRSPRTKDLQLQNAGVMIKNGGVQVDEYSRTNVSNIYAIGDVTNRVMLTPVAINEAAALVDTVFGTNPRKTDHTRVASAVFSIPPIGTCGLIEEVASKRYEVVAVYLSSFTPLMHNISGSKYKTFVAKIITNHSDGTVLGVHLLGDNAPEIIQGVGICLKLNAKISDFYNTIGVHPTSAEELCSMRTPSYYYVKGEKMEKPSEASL
MEASURED PARAMETER: log10 IC50 (log10 of the value in µM)
// do not treat as linear: log10 of IC50, unit µM

// known answers, use as guide
>>> print(df.to_string())
                               query_smiles  recorded_number
0  CN1CCN(CCC(=O)Nc2ccccc2Sc2cccc(NC(=O)CCCCCC(=O)Nc3cccc(Sc4ccccc4N)c3)c2)CC1             0.26
1  CN1CCN(CCC(=O)Nc2cc(Br)ccc2Sc2cccc(NC(=O)CCCCCC(=O)Nc3ccccc3)c2)CC1             1.15
2  CN1CCN(CCC(=O)Nc2cc(Br)ccc2Sc2cccc(NC(=O)CCCC(=O)NCc3ccc4c(c3)OCO4)c2)CC1             1.52
3  CN1CCN(CCC(=O)Nc2cc(Br)ccc2Sc2cccc(NC(=O)CCCC(=O)NCc3ccc4ccccc4c3)c2)CC1             1.40

Notebook: CN1CCN(CCC(=O)Nc2cc(Br)ccc2Sc2cccc(NC(=O)CCCC(=O)NCC3CCCCC3)c2)CC1 , log10 IC50 read as 1.67

###

Consider the following compounds; for each one, report its IC50.
biological target: UniProt P28593

// known answers, use as guide
In [3]: df
Out[3]:
                               query_smiles   result
0  CCN(CC)C(=O)CCCC(=O)Nc1cccc(Sc2ccc(Br)cc2NC(=O)CCN2CCN(C)CC2)c1  > 60 µM
1  CN1CCN(CCC(=O)Nc2cc(Br)ccc2Sc2cccc(NC(=O)CCCC(=O)NCc3ccccn3)c2)CC1  > 60 µM

Below: the item to evaluate.
Notebook: CN1CCN(CCC(=O)Nc2cc(Br)ccc2Sc2cccc(NC(=O)CCCC(=O)NCC34C[C@H]5C[C@@H](C3)C[C@@H](C4)C5)c2)CC1 , IC50 read as > 60 µM
